Test system: CTK
Construct: gene MATK
Conditions: concentration: 1 μM, replicates: in singlicate; n = 1;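 note: KINOMEscan kinase panel screen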
One threshold, 2%, splits the recorded %Inh values: lower ones are Condition met, equal or higher ones are Condition not met.

Consider the worked cases shown below.
INSERT INTO measurements (compound, category) VALUES
  ('CN(C)c1cc(-c2ccc3c(N)n[nH]c3c2)nc(N)n1', 'Condition met'),
  ('CCC(=O)c1c(-c2ccccc2)c2cc(Cl)ccc2c(=O)n1Cc1cc(C(=O)NC2CC2)n(C)n1', 'Condition not met'),
  ('CN1C(=O)C(Nc2ccccc2)=C(c2ccccc2)C1=O', 'Condition not met');

[in] Please check: %Inh for Nc1ncnc2c1ncn2-c1cccc2ccccc12 , strictly under 2% or not?
[out] Condition met

====

Measured %Inh, listed per entry for reference.
Tested on: ERK5
Construct: gene MAPK7
Settings: concentration: 1 μM, replicates: in singlicate; n = 1
I only need the number, in %, no unit after it.

[in] // fetch ERK5 %Inh for Nc1n[nH]c2ncc(-c3ccccc3)cc12
[out] 0

====

Measured %Inh, listed per entry for reference.
Test system: STK36
Conditions: concentration: 1 μM, replicates: in singlicate; n = 1
I'd appreciate it if you wrote the number followed by its unit.

INSERT INTO assay_data (molecule, recorded_result) VALUES
  ('CCCNC(=O)Nc1ccc(Oc2ncnc3ccn(C)c23)cc1', '32%'),
  ('COc1ccc(-c2coc3ccc(-c4nnc(SCc5cccc(C#N)c5)o4)cc23)cc1', '8%'),
  ('Cl.NS(=O)(=O)c1cccc(Nc2cc(-c3ccc(F)cc3)n[nH]2)c1', '0%'),
  ('COC(=O)c1c(-c2ccccc2)c2cc(Br)ccc2c(=O)n1Cc1ccc(NC(=O)CCC(=O)O)cc1', '8%');

Then this molecule:
[in] So what's the measured %Inh for this one? Cc1nnc(-c2ccc3ncn(-c4ccc(S(C)=O)cc4)c3c2)o1 (centres unmarked)
[out] 22%

====

Tested on: BRSK2
Settings: concentration: 1 μM, replicates: in singlicate; n = 1
quantity.name: %Inh (%)
I only need the number, in %, no unit after it.

INSERT INTO measurements (molecule_smiles, quantity_name, readout_units, recorded_result) VALUES
  ('CCC(=O)c1c(-c2ccccc2)c2cc(Cl)ccc2c(=O)n1Cc1cc(C(=O)NC2CC2)n(C)n1', '%Inh', '%', 0),
  ('Cc1ccccc1COc1cc(-n2cnc3cc(Cl)ccc32)sc1C(N)=O', '%Inh', '%', 2),
  ('COc1ccc(-c2cc3c(C)nc(N)nc3n([C@H]3CC[C@H](OCCO)CC3)c2=O)cn1', '%Inh', '%', 0);

[in] So what's the measured %Inh for this one? Cc1cc(Nc2nc(-c3cccc(C)n3)nc3ccccc23)ccn1
[out] 13

[in] // query: Nc1nccc2scc(-c3ccc4c(c3)CCN4C(=O)Cc3ccccc3)c12
[out] 0

[in] // query: CCc1nc(-c2cccc(C)c2)c(-c2ccncc2)s1
[out] 0

[in] // query: O=C1NC(=O)C(c2ccccc2)=C1Nc1cccc(O)c1
[out] 0

[in] // query: Nc1n[nH]c2ncc(-c3ccccc3)cc12
[out] 0

[in] // query: COC(=O)c1c(-c2ccccc2)c2cc(Br)ccc2c(=O)n1Cc1ccc(S(C)(=O)=O)cc1
[out] 0
